test system: 317291-083-R-J1-PDC complex spheroid growth; assay: Anticancer human tumor 317291-083-R-J1-PDC patient-derived soft tissue sarcoma cell line growth inhibition [Asc]; conditions: second compound 0.316 µM; first compound 0.03 µM; stronger effect = lower value

{"Compound": "NC(=O)C(=Cn1cnc(-c2cc(C(F)(F)F)cc(C(F)(F)F)c2)n1)c1cncnc1 + CNC(C)C(=O)NC1CN(S(=O)(=O)c2cccc(S(=O)(=O)N3CCC4CCC(C(=O)NC(c5ccccc5)c5ccccc5)N4C(=O)C(NC(=O)C(C)NC)C3)c2)CCC2CCC(C(=O)NC(c3ccccc3)c3ccccc3)N2C1=O", "Subject of test": "317291-083-R-J1-PDC complex spheroid growth", "viability, T/C": "16.1%"}
{"Compound": "Cc1nc(N2CCC3(CC2)COC(C)C3N)c(CO)nc1Sc1ccnc(N)c1Cl (centres undefined) + CNC(C)C(=O)NC1CN(S(=O)(=O)c2cccc(S(=O)(=O)N3CCC4CCC(C(=O)NC(c5ccccc5)c5ccccc5)N4C(=O)C(NC(=O)C(C)NC)C3)c2)CCC2CCC(C(=O)NC(c3ccccc3)c3ccccc3)N2C1=O", "Subject of test": "317291-083-R-J1-PDC complex spheroid growth", "viability, T/C": "39.8%"}
{"Compound": "CCN1C(C(=O)NC23CCC(C(=O)O)(CC2)CC3)C(c2cccc(Cl)c2F)C2(C(=O)Nc3cc(Cl)ccc32)C12CCCCC2 (centres undefined) + CNC(C)C(=O)NC1CN(S(=O)(=O)c2cccc(S(=O)(=O)N3CCC4CCC(C(=O)NC(c5ccccc5)c5ccccc5)N4C(=O)C(NC(=O)C(C)NC)C3)c2)CCC2CCC(C(=O)NC(c3ccccc3)c3ccccc3)N2C1=O", "Subject of test": "317291-083-R-J1-PDC complex spheroid growth", "viability, T/C": "55.3%"}
{"Compound": "CCN1C(C(=O)NC23CCC(C(=O)O)(CC2)CC3)C(c2cccc(Cl)c2F)C2(C(=O)Nc3cc(Cl)ccc32)C12CCCCC2 (centres undefined) + Cc1c(S(C)(=O)=O)c(-c2cc(F)cc(N3CCN(c4ccc(NS(=O)(=O)c5ccc(NC(CCN6CCC(C(=O)OCCCP(=O)(O)O)CC6)CSc6ccccc6)c(S(=O)(=O)C(F)(F)F)c5)cc4)CC3)c2)c(-c2ccc(Cl)cc2)n1C(C)C", "Subject of test": "317291-083-R-J1-PDC complex spheroid growth", "viability, T/C": "90.8%"}

* * *

test system: 317291-083-R-J1-PDC complex spheroid growth; experiment: Anticancer human tumor 317291-083-R-J1-PDC cell line growth inhibition [Asc]; details: second compound 0.316 µM; first compound 0.0316 µM; stronger effect = lower value;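 also: compound exposure lasted seven days after spheroids formed for three days; 100% = DMSO vehicle control wells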
Entries and their viability, T/C

{"Compound": "CCN1CCN(Cc2ccc(Nc3ncc(F)c(-c4cc(F)c5nc(C)n(C(C)C)c5c4)n3)nc2)CC1 + CNC(C)C(=O)NC1CN(S(=O)(=O)c2cccc(S(=O)(=O)N3CCC4CCC(C(=O)NC(c5ccccc5)c5ccccc5)N4C(=O)C(NC(=O)C(C)NC)C3)c2)CCC2CCC(C(=O)NC(c3ccccc3)c3ccccc3)N2C1=O", "Subject of test": "317291-083-R-J1-PDC complex spheroid growth", "viability, T/C": "42.8%"}
{"Compound": "C=C(F)C(=O)N1CCN(c2nc(OCC3CCCN3C)nc3c2CCN(c2cccc4cccc(Cl)c24)C3)CC1CC#N (stereo not drawn) + Cc1c(S(C)(=O)=O)c(-c2cc(F)cc(N3CCN(c4ccc(NS(=O)(=O)c5ccc(NC(CCN6CCC(C(=O)OCCCP(=O)(O)O)CC6)CSc6ccccc6)c(S(=O)(=O)C(F)(F)F)c5)cc4)CC3)c2)c(-c2ccc(Cl)cc2)n1C(C)C", "Subject of test": "317291-083-R-J1-PDC complex spheroid growth", "viability, T/C": "80.8%"}
{"Compound": "Cn1ncnc1[C@H]1c2n[nH]c(=O)c3cc(F)cc(c23)N[C@@H]1c1ccc(F)cc1 + CNC(C)C(=O)NC1CN(S(=O)(=O)c2cccc(S(=O)(=O)N3CCC4CCC(C(=O)NC(c5ccccc5)c5ccccc5)N4C(=O)C(NC(=O)C(C)NC)C3)c2)CCC2CCC(C(=O)NC(c3ccccc3)c3ccccc3)N2C1=O", "Subject of test": "317291-083-R-J1-PDC complex spheroid growth", "viability, T/C": "28.9%"}
